Cited source: PubChem BioAssay (NCI)

assay: NCI Yeast Anticancer Drug Screen. Data for the sgs1 mgt1 strain (AID 161);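 also: 0% = growth of cultures given vehicle only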; conditions: S. cerevisiae sgs1 mgt1 strain, at 50.0 µM, stronger effect = higher value
The panel holds about 79,000 compounds, 15% with a hit somewhere; the sample as a whole holds those more often.
MEASURED_PARAMETER: growth inhibition (%)
Return type: number; implicit unit %.

The following molecules have reported results that may help.
Cc1cc(N(CCC#N)S(=O)(=O)c2ccccc2)ccc1C=Nc1ccc(C(=O)O)cc1 | -6.15
Nc1ccc(C(=O)O)c([N+](=O)[O-])c1 | -0.5

Kindly review the next molecule as well.
Any idea what its growth inhibition is? The molecule is O=C1Nc2ccccc2C12OCCS2 (stereo not drawn)
17.2
